Documented inhibition at 20000 µM across a set of compounds
Molecular target: LmjIPCS (inositol phosphorylceramide synthase from L. major) (Leishmania major)
Sequence (E9AFX2 1-338): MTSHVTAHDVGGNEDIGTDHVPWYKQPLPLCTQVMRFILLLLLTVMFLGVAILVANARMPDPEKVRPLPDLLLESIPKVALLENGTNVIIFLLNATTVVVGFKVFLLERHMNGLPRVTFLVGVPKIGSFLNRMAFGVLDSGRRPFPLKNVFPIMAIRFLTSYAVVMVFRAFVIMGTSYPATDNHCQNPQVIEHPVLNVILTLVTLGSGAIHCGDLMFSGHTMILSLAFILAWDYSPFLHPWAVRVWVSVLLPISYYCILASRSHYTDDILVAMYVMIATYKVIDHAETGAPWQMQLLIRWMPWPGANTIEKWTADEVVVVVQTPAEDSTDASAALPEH
Experiment: biochemical
Type: biochemical
Conditions: read-out: 20mM inhibition LmjIPCS

Compound | inhibition at 20000 µM (%)
C[N+](C)(C)CCCCCC[N+](C)(C)C [HEXAMETHONIUM] | -4
c1ccc2c(CC3=NCCN3)cccc2c1 [NAPHAZOLINE] | 28
O=C1O[C@H](CO)[C@@H](O)[C@H](O)[C@H]1O [GLUCONOLACTONE] | 0.589

###

biological target: LmjIPCS (inositol phosphorylceramide synthase from L. major) (Leishmania major, UniProt E9AFX2); experiment: biochemical; format: biochemical; conditions: read-out: 20mM inhibition LmjIPCS
Outcome: 1 (yes) for inhibition at 20000 µM of at least 10%; 0 (no) for anything lower.

Molecule | Assigned category
CC(C)CC(NC(=O)OCC1c2ccccc2-c2ccccc21)C(=O)O (stereo in doubt) | 1 (yes)
Nc1ccc(S(=O)(=O)Nc2ncccn2)cc1 [SULFADIAZINE] | 1 (yes)
CC1CCC(NC(=O)N(CCCl)N=O)CC1 (centres unmarked) [SEMUSTINE] | 1 (yes)
CN(N=O)C(=O)N[C@H]1C(O)O[C@H](CO)[C@@H](O)[C@@H]1O (mixture of isomers) [STREPTOZOSIN] | 1 (yes)
CCOC(=O)[C@H](CCc1ccccc1)N[C@@H](C)C(=O)N1CCC[C@H]1C(=O)O | 0 (no)
COc1ccc(C(C)=O)c(O)c1 [PAEONOL] | 0 (no)
CC(=O)OCC(=O)[C@@]1(O)[C@H](C)C[C@H]2[C@@H]3CCC4=CC(=O)C=C[C@]4(C)[C@@]3(F)[C@@H](O)C[C@@]21C [DEXAMETHASONE ACETATE] | 0 (no)
CC[N+](C)(C)c1cccc(O)c1 [EDROPHONIUM] | 1 (yes)
NC(=O)c1ccc[n+]([C@@H]2O[C@H](COP(=O)([O-])OP(=O)(O)OC[C@H]3O[C@@H](n4cnc5c(N)ncnc54)[C@H](OP(=O)(O)O)[C@@H]3O)[C@@H](O)[C@H]2O)c1 | 0 (no)
CCC1(c2ccccc2)C(=O)NCNC1=O [PRIMIDONE] | 0 (no)
C#C[C@]1(OC(C)=O)CC[C@H]2[C@@H]3CCC4=CC(=O)CC[C@@H]4[C@H]3CC[C@@]21C [NORETHINDRONE ACETATE] | 1 (yes)
O=C(/C=C/C=C/c1ccc2c(c1)OCO2)N1CCCCC1 [PIPERINE] | 1 (yes)
CC1=C(C(=O)O)N2C(=O)[C@@H](NC(=O)[C@H](N)c3ccccc3)[C@H]2SC1 [CEPHALEXIN] | 0 (no)
COc1ccc(-c2cc(C(F)F)nn2-c2ccc(S(N)(=O)=O)cc2)cc1F [DERACOXIB] | 1 (yes)
C[C@]12CC[C@@H]3c4ccc(O)cc4CC[C@H]3[C@@H]1CCC2=O [ESTRONE] | 0 (no)
CC(=O)c1c(O)c(C)c(O)c2c1OC1=CC(=O)C(C(C)=O)C(=O)C12C (centres unmarked) [USNIC ACID] | 1 (yes)
CCC[C@H](N[C@@H](C)C(=O)N1[C@H](C(=O)O)C[C@@H]2CCCC[C@@H]21)C(=O)OCC [PERINDOPRIL] | 0 (no)

###

molecular target: LmjIPCS (inositol phosphorylceramide synthase from L. major) (Leishmania major, UniProt E9AFX2); assay: biochemical; format: biochemical; conditions: NINDS set screen, single concentration printed as 20mM
Structures can show the parent of a compound that is named as a salt.
Documented 20mM inhibition LmjIPCS across a set of compounds
Test readout: 20mM inhibition LmjIPCS (%)

Compound | Test readout | Assay value
N=C(N)NC(=O)c1nc(Cl)c(N2CCCCCC2)nc1N [N,N-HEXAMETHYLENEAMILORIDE] | 20mM inhibition LmjIPCS | 65
CCC(=O)O[C@H]1CC[C@H]2[C@@H]3CCc4cc(O)ccc4[C@H]3CC[C@]12C [ESTRADIOL PROPIONATE] | 20mM inhibition LmjIPCS | 74
CCc1nc(N)nc(N)c1-c1ccc(Cl)cc1 | 20mM inhibition LmjIPCS | 77
CC(CCc1ccccc1)NC(C)C(O)c1ccc(O)cc1 (centres unmarked) [NYLIDRIN HYDROCHLORIDE] | 20mM inhibition LmjIPCS | 54
CN1CCc2cccc3c2[C@H]1Cc1ccc(O)c(O)c1-3 | 20mM inhibition LmjIPCS | 47
CCCCCCCCNC(C)C(O)c1ccc(SC(C)C)cc1 (centres unmarked) [suloctidil 15, suloctidil, reference compound] | 20mM inhibition LmjIPCS | 81
CC(C)=CCc1c2c(c3occ(-c4ccc(O)c(O)c4)c(=O)c3c1O)C=CC(C)(C)O2 | 20mM inhibition LmjIPCS | 73
COc1cc(N)c(Cl)cc1C(=O)NC1CCN(Cc2ccccc2)CC1 [CLEBOPRIDE] | 20mM inhibition LmjIPCS | 47
CC(NCCC(c1ccccc1)c1ccccc1)c1ccccc1 (centres unmarked) [fendiline 6, fendiline, reference compound] | 20mM inhibition LmjIPCS | 71
Nc1ccc(S(=O)(=O)Nc2nccs2)cc1 | 20mM inhibition LmjIPCS | 35
CCCNC(=O)NS(=O)(=O)c1ccc(Cl)cc1 [CHLORPROPAMIDE] | 20mM inhibition LmjIPCS | 55
[H]/N=C(/NCCCCC)N/N=C/c1c[nH]c2ccc(OC)cc12 | 20mM inhibition LmjIPCS | 71
C[N+](C)(C)CCOC(N)=O | 20mM inhibition LmjIPCS | 57
CN1CCc2c(c3ccccc3n2Cc2ccccc2)C1 [MEBHYDROLIN] | 20mM inhibition LmjIPCS | 72
CCCCC(CC)CN1CN(CC(CC)CCCC)CC(C)(N)C1 (centres unmarked) | 20mM inhibition LmjIPCS | 85
C#CCCCCCCCCCCCC(O)CC(O)CO (centres unmarked) | 20mM inhibition LmjIPCS | 65
CC(C)[N+](C)(CCOC(=O)C1c2ccccc2Oc2ccccc21)C(C)C [PROPANTHELINE BROMIDE] | 20mM inhibition LmjIPCS | 35
c1ccc2[nH]c(-c3cscn3)nc2c1 | 20mM inhibition LmjIPCS | 41
CC(=O)O[C@@H]1C[C@H]2C(C)(C)C(=O)C=C[C@]2(C)[C@H]2CC[C@@]3(C)[C@H](c4ccoc4)OC(=O)[C@H]4O[C@]43[C@@]21C | 20mM inhibition LmjIPCS | 48
CC(C)NCC(O)c1ccc2ccccc2c1 (centres unmarked) | 20mM inhibition LmjIPCS | 60
O=C1c2c(O)ccc(O)c2C(=O)c2c(NCCNCCO)ccc(NCCNCCO)c21 | 20mM inhibition LmjIPCS | 63
Cc1cc(C(C)(C)C)c(O)c(C)c1CC1=NCCN1 | 20mM inhibition LmjIPCS | 75
CC(=O)Oc1ccc2c(c1)CC[C@@H]1[C@@H]2CC[C@]2(C)[C@@H](O)CC[C@@H]12 [ESTRADIOL ACETATE] | 20mM inhibition LmjIPCS | 68
Nc1nc(N)c2nc(-c3ccccc3)c(N)nc2n1 | 20mM inhibition LmjIPCS | 36
CN1CCCC(n2nc(Cc3ccc(Cl)cc3)c3ccccc3c2=O)CC1 (centres unmarked) | 20mM inhibition LmjIPCS | 56
O=C(O)CCCC[C@@H]1CCSS1 (racemic) | 20mM inhibition LmjIPCS | 55
O=C(O)CCCCCCCC(=O)O | 20mM inhibition LmjIPCS | 38
CCCCC(CC)CNC(=N)NC(=N)NCCCCCCNC(=N)NC(=N)NCC(CC)CCCC (centres unmarked) | 20mM inhibition LmjIPCS | 47
CC(=O)[C@H]1CC[C@H]2[C@@H]3CC=C4C[C@@H](O)CC[C@]4(C)[C@H]3CC[C@]12C | 20mM inhibition LmjIPCS | 52
CCN(CC)CCOC(=O)C(c1ccccc1)c1ccccc1 | 20mM inhibition LmjIPCS | 51
Oc1ccc(Cl)c2cccnc12 | 20mM inhibition LmjIPCS | 59
CCCCCCc1ccc(O)cc1O | 20mM inhibition LmjIPCS | 47
COc1ccc(C(=O)c2ccccc2)c(O)c1 | 20mM inhibition LmjIPCS | 34
CCCC(C(=O)OCCN(CC)CC)(c1ccccc1)c1ccccc1 | 20mM inhibition LmjIPCS | 36
CC(=O)NO [ACETOHYDROXAMIC ACID] | 20mM inhibition LmjIPCS | 34
Nc1ccc(/N=N/c2ccccc2)c(N)n1 | 20mM inhibition LmjIPCS | 52
O=C1C[C@@H](c2ccccc2)Oc2cc(O)cc(O)c21 | 20mM inhibition LmjIPCS | 35
CC[C@H](c1ccc(O)cc1)[C@@H](CC)c1ccc(O)cc1 | 20mM inhibition LmjIPCS | 34
